# target_system: Estrogen receptor (Homo sapiens)
# experimental_details: qHTS assay to identify small molecule agonists of the estrogen receptor alpha (ER-alpha) signaling pathway (AID 743075);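 further: HEK293 GripTite cells with ER-alpha and UAS-driven beta-lactamase reporter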
# assay_conditions: HEK293 ER-alpha-UAS-bla, beta-lactamase FRET ratio, 18 h; series mostly up to 70.1 µM
Activity calls are given as the source filed them. The call rests on the fitted dose curve.
# valid calls are active, inactive; nothing else

Kindly provide the recorded test outcome for the following compound: [O]=[Bi][O]C(=O)[O][Bi]=[O] inactive

Kindly provide the recorded test outcome for the following compound: O=C(O)c1c(Cl)c(Cl)c(Cl)c(Cl)c1-c1c2cc(I)c(=O)c(I)c-2oc2c(I)c(O)c(I)cc12 inactive

Kindly provide the recorded test outcome for the following compound: CCCCCCC(=O)O[C@H]1CC[C@H]2[C@@H]3CCc4cc(O)ccc4[C@H]3CC[C@]12C active

Kindly provide the recorded test outcome for the following compound: COc1ccc(C[C@H](N)C(=O)N[C@H]2[C@@H](O)[C@H](n3cnc4c(N(C)C)ncnc43)O[C@@H]2CO)cc1 inactive

Kindly provide the recorded test outcome for the following compound: O=C(NOC[C@H](O)CO)c1ccc(F)c(F)c1Nc1ccc(I)cc1F inactive

Kindly provide the recorded test outcome for the following compound: CC(O)[C@@H]1NC(=O)[C@H](Cc2ccccc2)NC(=O)[C@H](C(C)O)NC(=O)[C@H](CCCCN)NC(=O)[C@H](Cc2c[nH]c3ccccc23)NC(=O)[C@H](Cc2ccccc2)NC(=O)[C@H](Cc2ccccc2)NC(=O)[C@H](CC(N)=O)NC(=O)[C@H](CCCCN)NC(=O)[C@@H](NC(=O)CNC(=O)[C@H](C)N)CSSC[C@@H](C(=O)O)NC(=O)[C@H](CO)NC1=O (some centres not stated) inactive

Kindly provide the recorded test outcome for the following compound: CC(O)[C@@H]1NC(=O)[C@H](CCCCN)NC(=O)[C@@H](Cc2c[nH]c3ccccc23)NC(=O)[C@H](Cc2ccccc2)NC(=O)[C@@H](NC(=O)[C@H](N)Cc2ccccc2)CSSC[C@@H](C(=O)N[C@H](CO)[C@@H](C)O)NC1=O (some centres not stated) inactive
